B1: tRNA (parent)
chain: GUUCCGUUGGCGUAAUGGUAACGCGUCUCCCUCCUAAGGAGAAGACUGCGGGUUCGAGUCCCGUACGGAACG

# Variants of: B1
# Assay Method Text: yeast fitness relative to wild type (ratio to wild type); higher = fitter; tRNA-Arg(CCU), competitive growth, 37 C, YPD
Variants at the floor of the assay were thinned out.
Binary classification by yeast fitness, with 0.6 as an inclusive lower bound for True; all other cases are False.

Use these answered entries as a reference point.
A20U A21U A65U G67A; False
U2C U8C C34A A42C G68C; False
C24G U26A C29G U32A; False
C31U U32C G41C G68U; False
G18C C60U A70U; False

Incoming: // inclusive: yeast fitness at least 0.6? input: U13C C29U
Outgoing: True

Incoming: // inclusive: yeast fitness at least 0.6? input: C5A U54C
Outgoing: True

Incoming: // inclusive: yeast fitness at least 0.6? input: A42U G48A U54C
Outgoing: True

Incoming: // inclusive: yeast fitness at least 0.6? input: A21U U35A G44A
Outgoing: False

Incoming: // inclusive: yeast fitness at least 0.6? input: C5U C27G G38U
Outgoing: False

Incoming: // inclusive: yeast fitness at least 0.6? input: A15U C30G C34U C66U A70C
Outgoing: False

Incoming: // inclusive: yeast fitness at least 0.6? input: A21G C27A A37U G50A
Outgoing: False
